Please consider the recorded AC50 for Cytochrome P450 1A2 (Homo sapiens, UniProt P05177) in what follows.
OBSERVED PROPERTY: AC50

# MOLECULE, OBSERVED PROPERTY, REPORTED VALUE
measured = [
    ("COc1ccccc1N1CCN(CCn2c(=O)[nH]c3c([nH]c4ccccc43)c2=O)CC1", "AC50", "39.8 µM (inconclusive)"),
    ("OC[C@H]1O[C@H](n2cnc3c(NC4CCCC4)nc(Cl)nc32)[C@@H](O)[C@@H]1O", "AC50", "39.8 µM (inconclusive)"),
    ("O=C1CN=C(Nc2ccc(Cl)cc2)N1c1ccccc1", "AC50", "14.1 µM (inconclusive)"),
    ("O=C(N/N=C\\c1cn(-c2ccccc2)nc1-c1ccccc1)c1ccc2c(c1)OCO2", "AC50", "3.55 µM (inconclusive)"),
    ("CCOc1c2ccc(C(=O)NCc3ccccc3OC)cc2nn1CC", "AC50", "17.8 µM (inconclusive)"),
    ("COC(=O)[C@@]1(Cc2ccccc2)[C@H]2c3cc(C(=O)N4CCCC4)[nH]c3C[C@H]2CN1C(=O)c1ccccc1", "AC50", "1.26 µM (inconclusive)"),
    ("O=C(/C=C/c1ccccc1)N1CCN(Cc2nc(O)c3ccccc3n2)CC1", "AC50", "31.6 µM (inconclusive)"),
    ("Cn1cc(-c2nc3cnc(Oc4cccc(Cl)c4)nc3n(CCC#N)c2=O)c2ccccc21", "AC50", "2.51 µM (inconclusive)"),
    ("N[C@](CC1c2ccccc2Oc2ccccc21)(C(=O)O)[C@@H]1C[C@@H]1C(=O)O", "AC50", "31.6 µM (inconclusive)"),
]

====

Attribute: EC50
assay: Luminescence Cell-Based Dose Confirmation HTS to Identify Activators of 5'UTR Stem-Loop Driven Alpha-Synuclein mRNA Translation in H4 Neuroglioblastoma Cells. [Related pubchem assays: 1829 (Project Summary), 1814 (Primary HTS)]; type: functional
Active and inactive are the calls of the source.

# MOLECULE, EC50
data = [
    ("Oc1ccc(Br)cc1/C=N/n1cnc2ccccc21", "11 µM (active)"),
    ("COc1ccc(-c2csc(N3CCSCC3)n2)cc1", "1.64 µM (active)"),
    ("O=C(Nc1cc(C(F)(F)F)ccc1Cl)c1cc2nc3c(c(C(F)(F)F)n2n1)CCCC3", "1.53 µM (active)"),
    ("O=C(Nc1nc2c(F)cc(F)cc2s1)C1CCN(C(=O)c2ccc(F)cc2)CC1", "3.61 µM (active)"),
    ("C=CCNC(SCC(=O)c1ccc(Cl)cc1)=C1C(=O)N(C)C(=O)N(C)C1=O", "24.9 µM (active)"),
    ("S=C(N=Nc1ccccc1)NNc1ccccc1", "14.4 µM (active)"),
]

====

molecular target: Paired box protein Pax-8 (Homo sapiens, UniProt Q06710); test: PAX8 transcriptional activity inhibition in RMG-I – RMG-I cells, luciferase, cherry-pick, dose response (AID 687027); type: functional, cell-based;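 also: luciferase reporter driven by Pax8 target thyroperoxidase promoter measured by SteadyGlo luminescence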
Sequence (Q06710 whole entry): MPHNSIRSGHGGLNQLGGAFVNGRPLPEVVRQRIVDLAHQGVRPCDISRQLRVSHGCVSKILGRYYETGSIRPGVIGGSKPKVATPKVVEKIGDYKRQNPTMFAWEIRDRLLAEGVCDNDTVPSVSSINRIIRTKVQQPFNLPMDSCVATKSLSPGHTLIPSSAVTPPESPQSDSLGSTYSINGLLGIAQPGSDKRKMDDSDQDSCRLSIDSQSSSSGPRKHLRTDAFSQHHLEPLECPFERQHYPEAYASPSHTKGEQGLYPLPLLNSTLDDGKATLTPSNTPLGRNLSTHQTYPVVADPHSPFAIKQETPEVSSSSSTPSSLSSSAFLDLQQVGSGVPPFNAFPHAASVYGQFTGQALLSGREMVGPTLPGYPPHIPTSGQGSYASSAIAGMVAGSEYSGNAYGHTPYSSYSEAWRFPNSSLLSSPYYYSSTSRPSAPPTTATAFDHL
Active and inactive are the calls of the source.
Entries and their AC50 values follow.
OBSERVED PROPERTY: AC50

# COMPOUND, REPORTED VALUE
measured = [
    ("C[C@H](CO)N1C[C@H](C)[C@H](CN(C)Cc2ccccc2)OCCCC[C@H](C)Oc2ccc(NC(=O)Nc3ccc(C(F)(F)F)cc3)cc2C1=O", "4.95 µM (active)"),
    ("FC(F)(F)c1nnc2c(Sc3ccccc3)nc3ccc(Cl)cc3n12", "1.52 µM (active)"),
    ("CC(=NNc1cc(C)c2ccccc2n1)c1ccccn1", "7.4 µM (active)"),
    ("COc1ccc(N(C(=O)CCl)C(C(=O)NCCc2ccccc2)c2cccs2)cc1Cl (stereo unspecified)", "0.323 µM (active)"),
    ("C[C@@H]1CCCCO[C@H](CN(C)C(=O)Nc2ccc(C(F)(F)F)cc2)[C@@H](C)CN([C@@H](C)CO)C(=O)c2cc(NS(=O)(=O)c3ccc(F)cc3)ccc2O1", "4.88 µM (active)"),
    ("C[C@@H]1CN([C@@H](C)CO)C(=O)Cc2cc(NC(=O)CCC(F)(F)F)ccc2O[C@H]1CN(C)Cc1ccc(-c2ccccc2)cc1", "8.61 µM (active)"),
    ("C[C@@H]1CCCCO[C@H](CN(C)Cc2ccc(C(F)(F)F)cc2)[C@@H](C)CN([C@@H](C)CO)C(=O)c2cc(NC(=O)Cc3ccccc3)ccc2O1", "9.25 µM (active)"),
    ("Cc1ccc(S(=O)(=O)N(C)C[C@@H]2Oc3c(NC(=O)c4ccc(-c5nccs5)cc4)cccc3C(=O)N([C@@H](C)CO)C[C@@H]2C)cc1", "18.3 µM (active)"),
    ("O=C(CCl)/N=c1\\sccn1Cc1ccccc1Cl", "1.64 µM (active)"),
    ("Cn1nnnc1Sc1ncnc2scc(-c3ccc[nH]3)c12", "2.96 µM (active)"),
    ("CC(=NNc1ccc2ccccc2n1)c1ccccn1", "2.27 µM (active)"),
]
